Would you mind telling me the reported pIC50 of each entry?
Target: UniProtKB P23977
Sequence (P23977 whole entry): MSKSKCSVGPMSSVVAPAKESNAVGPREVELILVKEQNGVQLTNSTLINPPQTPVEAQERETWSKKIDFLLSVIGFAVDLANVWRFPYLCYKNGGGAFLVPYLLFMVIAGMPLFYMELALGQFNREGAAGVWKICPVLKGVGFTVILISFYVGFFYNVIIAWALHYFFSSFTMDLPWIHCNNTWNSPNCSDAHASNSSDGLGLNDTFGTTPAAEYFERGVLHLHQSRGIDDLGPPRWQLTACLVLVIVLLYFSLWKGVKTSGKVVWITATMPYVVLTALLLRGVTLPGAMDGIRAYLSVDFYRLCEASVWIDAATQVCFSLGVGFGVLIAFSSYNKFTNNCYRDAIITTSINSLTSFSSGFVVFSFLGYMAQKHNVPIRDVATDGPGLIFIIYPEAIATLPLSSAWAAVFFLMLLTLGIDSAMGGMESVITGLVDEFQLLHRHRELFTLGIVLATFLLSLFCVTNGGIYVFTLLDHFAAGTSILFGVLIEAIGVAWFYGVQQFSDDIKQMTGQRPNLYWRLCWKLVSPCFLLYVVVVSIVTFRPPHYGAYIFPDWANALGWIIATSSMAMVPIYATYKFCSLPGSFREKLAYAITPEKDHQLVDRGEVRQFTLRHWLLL
Assay: In vitro potency for inhibiting [3H]- dopamine uptake was determined
Assay type: functional
# pIC50 = -log10(concentration in molar units)

Name the recorded pIC50 for COC(=O)[C@@H]1C2CCC(C[C@@H]1OC(c1ccc(F)cc1)c1ccc(F)cc1)N2C (some centres not stated) .
8.82

Name the recorded pIC50 for CCOC(=O)[C@@H]1C2CCC(C[C@@H]1OC(c1ccc(F)cc1)c1ccc(F)cc1)N2C (some centres not stated) .
8.74

Name the recorded pIC50 for CN1C2CCC1[C@@H](C(=O)OCCc1ccc(N)cc1)[C@@H](OC(c1ccc(F)cc1)c1ccc(F)cc1)C2 (some centres not stated) .
8.10

Name the recorded pIC50 for CN1C2CCC1[C@@H](C(=O)OCCc1ccc([N+](=O)[O-])cc1)[C@@H](OC(c1ccc(F)cc1)c1ccc(F)cc1)C2 (some centres not stated) .
8.48

Name the recorded pIC50 for CC(C)OC(=O)[C@@H]1C2CCC(C[C@@H]1OC(c1ccc(F)cc1)c1ccc(F)cc1)N2C (some centres not stated) .
8.21

Name the recorded pIC50 for CN1C2CCC1[C@@H](C(=O)OCCc1ccccc1)[C@@H](OC(c1ccc(F)cc1)c1ccc(F)cc1)C2 (some centres not stated) .
8.59

Name the recorded pIC50 for CN1C2CCC1[C@@H](C(=O)OCc1ccccc1)[C@@H](OC(c1ccc(F)cc1)c1ccc(F)cc1)C2 (some centres not stated) .
8.66

* * *

Molecular target: Sodium-dependent serotonin transporter (Rattus norvegicus, UniProt P31652)
Sequence (P31652 whole entry): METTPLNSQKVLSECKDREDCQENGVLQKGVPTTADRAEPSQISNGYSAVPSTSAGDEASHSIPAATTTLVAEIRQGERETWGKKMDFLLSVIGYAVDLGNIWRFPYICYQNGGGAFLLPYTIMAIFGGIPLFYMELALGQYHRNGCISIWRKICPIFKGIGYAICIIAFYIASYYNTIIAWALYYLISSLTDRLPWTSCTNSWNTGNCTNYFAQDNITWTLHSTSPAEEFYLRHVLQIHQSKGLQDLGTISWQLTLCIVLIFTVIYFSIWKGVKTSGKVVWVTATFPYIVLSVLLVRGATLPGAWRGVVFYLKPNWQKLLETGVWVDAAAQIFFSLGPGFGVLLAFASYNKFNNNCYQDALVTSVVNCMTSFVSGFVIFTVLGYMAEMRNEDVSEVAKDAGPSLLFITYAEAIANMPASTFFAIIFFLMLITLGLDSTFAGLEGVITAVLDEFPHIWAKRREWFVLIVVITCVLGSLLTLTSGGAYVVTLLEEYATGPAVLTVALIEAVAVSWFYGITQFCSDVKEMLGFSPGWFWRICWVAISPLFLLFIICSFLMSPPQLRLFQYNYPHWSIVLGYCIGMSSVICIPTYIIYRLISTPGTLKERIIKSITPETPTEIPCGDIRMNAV
Assay: Binding affinity towards serotonin transporter using [3H]citalopram as radioligand was determined
Would you mind telling me the reported pKi of each entry?
# pKi = -log10(concentration in molar units)

Find the measured pKi: item CC(C)OC(=O)[C@@H]1C2CCC(C[C@@H]1OC(c1ccc(F)cc1)c1ccc(F)cc1)N2C (single isomer, unassigned; (+)) , target or system Sodium-dependent serotonin transporter (Rattus norvegicus, UniProt P31652).
4.92

Find the measured pKi: item CN1C2CCC1[C@@H](C(=O)OCCc1ccccc1)[C@@H](OC(c1ccc(F)cc1)c1ccc(F)cc1)C2 (single isomer, unassigned; (+)) , target or system Sodium-dependent serotonin transporter (Rattus norvegicus, UniProt P31652).
5.50

Find the measured pKi: item CN1C2CCC1[C@@H](C(=O)OCCc1ccc(N)cc1)[C@@H](OC(c1ccc(F)cc1)c1ccc(F)cc1)C2 (stereo not given in full) , target or system Sodium-dependent serotonin transporter (Rattus norvegicus, UniProt P31652).
5.82

Find the measured pKi: item COC(=O)[C@@H]1C2CCC(C[C@@H]1c1ccc(Cl)c(Cl)c1)N2C (stereo not given in full) , target or system Sodium-dependent serotonin transporter (Rattus norvegicus, UniProt P31652).
8.84

Find the measured pKi: item CN1C2CCC1[C@@H](C(=O)OCc1ccccc1)[C@@H](OC(c1ccc(F)cc1)c1ccc(F)cc1)C2 (single isomer, unassigned; (+)) , target or system Sodium-dependent serotonin transporter (Rattus norvegicus, UniProt P31652).
5.69

* * *

Target: UniProt P08482
Sequence (P08482 whole entry): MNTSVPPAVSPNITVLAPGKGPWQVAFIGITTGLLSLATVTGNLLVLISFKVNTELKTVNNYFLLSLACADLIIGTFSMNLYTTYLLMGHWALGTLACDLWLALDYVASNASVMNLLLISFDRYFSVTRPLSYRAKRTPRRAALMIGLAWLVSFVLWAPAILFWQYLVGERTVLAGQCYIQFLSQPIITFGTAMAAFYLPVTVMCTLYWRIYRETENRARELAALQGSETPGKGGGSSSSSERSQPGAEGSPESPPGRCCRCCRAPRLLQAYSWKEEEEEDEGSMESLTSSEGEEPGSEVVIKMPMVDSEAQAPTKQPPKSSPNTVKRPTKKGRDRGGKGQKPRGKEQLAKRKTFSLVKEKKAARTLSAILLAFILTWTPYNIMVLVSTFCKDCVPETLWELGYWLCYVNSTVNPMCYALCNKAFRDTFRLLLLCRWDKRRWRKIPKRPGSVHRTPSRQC
pKi: −log10 of the molar value.
Kindly return TRUE if reported pKi is no lower than 6; return FALSE if it is lower.

Reported pKi at or above 6? CN1C2CCC1[C@@H](C(=O)OCc1ccccc1)[C@@H](OC(c1ccc(F)cc1)c1ccc(F)cc1)C2 (single isomer, unassigned; (+))
FALSE

Reported pKi at or above 6? CC(C)OC(=O)[C@@H]1C2CCC(C[C@@H]1OC(c1ccc(F)cc1)c1ccc(F)cc1)N2C (single isomer, unassigned; (+))
FALSE

Reported pKi at or above 6? CN1C2CCC1[C@@H](C(=O)OCCc1ccccc1)[C@@H](OC(c1ccc(F)cc1)c1ccc(F)cc1)C2 (single isomer, unassigned; (+))
TRUE

Reported pKi at or above 6? CN1C2CCC1[C@@H](C(=O)OCCc1ccc(N)cc1)[C@@H](OC(c1ccc(F)cc1)c1ccc(F)cc1)C2 (stereo not given in full)
TRUE

Reported pKi at or above 6? COC(=O)[C@@H]1C2CCC(C[C@@H]1c1ccc(Cl)c(Cl)c1)N2C (stereo not given in full)
FALSE
